Molecular target: T1, Boi1, P38041
T1 sequence (P38041 1-86, looked up): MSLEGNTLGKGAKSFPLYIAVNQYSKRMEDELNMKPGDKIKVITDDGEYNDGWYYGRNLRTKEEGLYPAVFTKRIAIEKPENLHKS
Assay: SPOT array
Conditions: median of control spots 1162
Below, each entry is listed with its recorded SPOT intensity.
Keep the answer to the number alone.

{"binder": "HHKRRPTTIDVPGLT", "SPOT intensity": 2}

# input binder: "RKNRAPPQRPRFNRD" ; wanted: its SPOT intensity
12

Query: SPOT intensity; subject: "AAHKTKPSIPPKKVE"
0

Value lookup for SPOT intensity; key = "RTRRRPPPPPIPSTQ"
1

// data source = paper PMC2756588
